Would you mind telling me the reported LC50 at 1 h of each entry?
experiment: Toxicity against Chlamydomonas reinhardtii D66 assessed as loss of respiratory activity after 1 hr; conditions: Chlamydomonas reinhardtii D66 cells, read-out: LD50
Give bare numbers, in µM.

Molecule	LC50 at 1 h / µM
CCOP(=O)(OCC)C(C)(CCC[P+](c1ccccc1)(c1ccccc1)c1ccccc1)NCC(C)C.[Br-] (racemic)	300
CC(C)(C)/[N+]([O-])=C/c1ccc(OCCCC[P+](c2ccccc2)(c2ccccc2)c2ccccc2)cc1.[Br-]	50
CCOP(=O)(OCC)C(C)(C)NCCCCCCCC[P+](c1ccccc1)(c1ccccc1)c1ccccc1.[Br-]	75
CCOP(=O)(OCC)C(C)(C)NCCCCCC[P+](c1ccccc1)(c1ccccc1)c1ccccc1.[Br-]	100

Request: // LC50 at 1 h lookup, key: CCOP(=O)(OCC)C(NCCCCCC[P+](c1ccccc1)(c1ccccc1)c1ccccc1)C(C)C.[Br-] (racemic)
Result: 130

* * *

system: Liver; assay: Toxicity against Sprague-Dawley rat liver assessed as ATP content incubated for 1 hr followed by compound washout measured after 10 mins; type: tissue-based
Result Type: Activity (µmol/g)
Give bare numbers, in µmol/g.

Known Activity results, listed for orientation:
Structure Smiles	System Under Test	Units Of Measure	Activity
CCOP(=O)(OCC)C(C)(C)NCCCCCCCC[P+](c1ccccc1)(c1ccccc1)c1ccccc1.[Br-]	Liver	µmol/g	2.08
CC(C)(C)/[N+]([O-])=C/c1ccccc1	Liver	µmol/g	2.11
CC(C)(C)/[N+]([O-])=C/c1ccc(OCCCC[P+](c2ccccc2)(c2ccccc2)c2ccccc2)cc1.[Br-]	Liver	µmol/g	1.95
CCOP(=O)(OCC)C(C)(C)NCCCCCC[P+](c1ccccc1)(c1ccccc1)c1ccccc1.[Br-]	Liver	µmol/g	2.29

Now look at this one.
Request: // Activity lookup, key: CCCNC(C)(C)P(=O)(OCC)OCC
Result: 2.33

* * *

Would you mind telling me the reported Activity of each entry?
tested on: NIH3T3; test: Cytotoxicity against mouse 3T3 cells assessed as LDH release per mg of protein at LD10 concentration after 1 hr by spectrophotometric analysis; assay type: cell-based; details: nih3t3, 1 h
Numbers only, in IU.

Known Activity results, listed for orientation:
Molecule	Activity (IU)
CCOP(=O)(OCC)C1(C)CCCN1 (centres undefined)	13.1
CCOP(=O)(OCC)C(NCCCCCC[P+](c1ccccc1)(c1ccccc1)c1ccccc1)C(C)(C)C.[Br-] (racemic)	16.7
CCOP(=O)(OCC)C(NCCCC[P+](c1ccccc1)(c1ccccc1)c1ccccc1)C(C)C.[Br-] (racemic)	10.7
CCOP(=O)(OCC)C(C)(C)NCCCC[P+](c1ccccc1)(c1ccccc1)c1ccccc1.[Br-]	10.2
CCOP(=O)(OCC)C(NCCCCCCCCCCCC[P+](c1ccccc1)(c1ccccc1)c1ccccc1)C(C)C.[Br-] (racemic)	52.7

# return Activity for each item in the list
1. CCOP(=O)(OCC)C(C)(C)NCCCCCCCCCCCC[P+](c1ccccc1)(c1ccccc1)c1ccccc1.[Br-]
2. CCCNC(C)(C)P(=O)(OCC)OCC
3. CC(C)(C)/[N+]([O-])=C/c1ccccc1

Result:
[44.7, 11.9, 14.2]

Request: // Activity lookup, key: CC(C)(C)/[N+]([O-])=C/c1ccc(OCCCC[P+](c2ccccc2)(c2ccccc2)c2ccccc2)cc1.[Br-]
Result: 49.7
